Test system: E coli NCTC 10418
Experiment: antibacterial activity (MIC)
Format: cell-based
Settings: Escherichia coli, NCTC10418; Table 2; gram negative organism E. coli NCTC 10418
Structures can show the parent of a compound that is named as a salt.
Measured endpoint: MIC

[[record]]
compound = "CC1(C)S[C@@H]2[C@H](NC(=O)[C@H](NC(=O)c3cnc(NCCc4ccccc4)nc3O)c3ccc(O)cc3)C(=O)N2[C@H]1C(=O)O"
endpoint_result = "5 µg/mL"

[[record]]
compound = "CCCNc1ncc(C(=O)N[C@@H](C(=O)N[C@@H]2C(=O)N3[C@@H]2SC(C)(C)[C@@H]3C(=O)O)c2ccccc2)c(O)n1 [Example 15, disodium salt]"
endpoint_result = "2.5 µg/mL"

[[record]]
compound = "CCCCCCCCNc1ncc(C(=O)N[C@@H](C(=O)N[C@@H]2C(=O)N3[C@@H]2SC(C)(C)[C@@H]3C(=O)O)c2ccccc2)c(O)n1 [Example 20, disodium salt]"
endpoint_result = "10 µg/mL"

[[record]]
compound = "COCCCNc1ncc(C(=O)N[C@@H](C(=O)N[C@@H]2C(=O)N3[C@@H]2SC(C)(C)[C@@H]3C(=O)O)c2ccccc2)c(O)n1 [Example 12, disodium salt]"
endpoint_result = "5 µg/mL"

[[record]]
compound = "CCSCCNc1ncc(C(=O)N[C@@H](C(=O)N[C@@H]2C(=O)N3[C@@H]2SC(C)(C)[C@@H]3C(=O)O)c2ccccc2)c(O)n1"
endpoint_result = "2.5 µg/mL"

[[record]]
compound = "CC1(C)S[C@@H]2[C@H](NC(=O)[C@H](NC(=O)c3cnc(NCc4ccccc4)nc3O)c3ccccc3)C(=O)N2[C@H]1C(=O)O"
endpoint_result = "2.5 µg/mL"


Value source: patent US4447422A
